Items are presented alongside their recorded inhibition at 12.5 µM.
tested on: Mycobacterium avium; experiment: Percent inhibition against Mycobacterium avium at the dose of 12.5 uM using Microplate Alamar Blue Assay (MABA) assay; assay type: functional
All answers are understood in %, so give the number only.

Example compounds with recorded inhibition at 12.5 µM:
O=S(=O)(c1ccc(Cl)cc1)n1cnc2c(S)ncnc21 | 60
O=S(=O)(c1ccc(Br)cc1)n1cnc2c(S)ncnc21 | 81
O=[N+]([O-])c1ccccc1Sn1cnc2c(S)ncnc21 | 75

*Q* Entry under review: `Cc1ccc(S(=O)(=O)n2cnc3c(S)ncnc32)cc1` . Reported inhibition at 12.5 µM?
*A* 73

*Q* Which inhibition at 12.5 µM is reported for this compound? `Nc1ccc(S(=O)(=O)n2cnc3c(S)ncnc32)cc1`
*A* 63

*Q* Requested read-out: inhibition at 12.5 µM. Entry: `CC(=O)Nc1ccc(S(=O)(=O)n2cnc3c(S)ncnc32)cc1`
*A* 57

*Q* What inhibition at 12.5 µM value was documented for this compound, `O=S(=O)(c1ccc(F)cc1)n1cnc2c(S)ncnc21` ?
*A* 70

*Q* What does the data say about its inhibition at 12.5 µM? Entry: `O=[N+]([O-])c1ccccc1S(=O)(=O)n1cnc2c(S)ncnc21`
*A* 50

*Q* Query: inhibition at 12.5 µM; subject: `O=[N+]([O-])c1ccc(Sn2cnc3c(S)ncnc32)cc1`
*A* 79

*Q* Reported inhibition at 12.5 µM, compound `CN(C)S(=O)(=O)n1cnc2c(=S)[nH]cnc21` : ____
*A* 40

*Q* Dear colleague, I am looking for the recorded inhibition at 12.5 µM of the following compound: `Nc1cccc(S(=O)(=O)n2cnc3c(S)ncnc32)c1`
*A* 68

Reference source: ChEMBL document CHEMBL1134115
